Recorded pIC50 for the following compounds
- system: UniProtKB P46098
- Sequence (P46098 24-478): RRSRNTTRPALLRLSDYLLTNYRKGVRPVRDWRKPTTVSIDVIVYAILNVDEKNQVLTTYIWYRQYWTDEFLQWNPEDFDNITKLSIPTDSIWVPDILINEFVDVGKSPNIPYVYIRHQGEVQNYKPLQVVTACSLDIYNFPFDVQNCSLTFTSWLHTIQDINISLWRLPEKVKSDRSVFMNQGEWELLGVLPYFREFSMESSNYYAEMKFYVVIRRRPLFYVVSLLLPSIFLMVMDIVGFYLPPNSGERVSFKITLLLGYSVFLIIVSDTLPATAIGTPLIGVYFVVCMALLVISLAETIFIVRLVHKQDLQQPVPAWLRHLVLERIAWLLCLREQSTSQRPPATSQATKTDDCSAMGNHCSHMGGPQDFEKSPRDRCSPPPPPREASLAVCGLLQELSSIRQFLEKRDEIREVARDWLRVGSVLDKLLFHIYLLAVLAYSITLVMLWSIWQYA
- assay remarks: Two-electrode voltage clamp of 5-HT-evoked currents in Xenopus oocytes expressing 5-HT3 receptors, nonlinear mixed-effects modeling
- assay setup: IC50 derived from normalized data, wild-type, normalized data instead of mixed-effects model
pIC50: −log10 of the molar value.

compound	pIC50
C=CC(C)(O)CCC=C(C)C (stereo not drawn)	4.08
CC12CCC(CC1)C(C)(C)O2	3.76
CC(C)=CCCC(C)=CC=O (mixture of isomers)	4.01
